Data origin: paper PMC10952772

- study system: T1, Human Scribble (SCRIB) PDZ4 domain (1099-1203) (human, UniProt Q14160 1099-1203)
- T1 sequence: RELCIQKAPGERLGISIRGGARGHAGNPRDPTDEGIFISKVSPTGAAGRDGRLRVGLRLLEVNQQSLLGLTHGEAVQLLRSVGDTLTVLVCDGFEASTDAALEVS
- experiment description: ITC
readout type: Kd (µM)
The figure you give is taken to be in µM; do not add the unit.

QUERY: Which value of Kd has been reported for RSWFETWV [Superpeptide (RSWFETWV)] in the records?
RESULT: 12.6
